target: Acetylcholinesterase (Homo sapiens); experiment: Acetylcholinesterase (AChE) small molecule antagonists: enzyme-based qHTS assay with human liver microsomes (AID 1347399); details: qHTS inhibition; series mostly up to 115 µM; further: nearly all actives have a fitted effect of over 60% in size
Activity calls are given as the source filed them. The call rests on the fitted dose curve.
readout.label: outcome

[[record]]
compound = "CN1CCC(=C2c3ccccc3CCc3cccnc32)CC1"
readout_label = "outcome"
observed_result = "inactive"

[[record]]
compound = "CCN1C(=O)c2ccccc2C1Nc1ccc(OCCN2CCCCC2)cc1 (stereo unspecified)"
readout_label = "outcome"
observed_result = "inactive"

[[record]]
compound = "COc1cc(C)ccc1O"
readout_label = "outcome"
observed_result = "inactive"

[[record]]
compound = "C#CC(C)N(C)C(=O)Nc1ccc(Cl)cc1 (stereo unspecified)"
readout_label = "outcome"
observed_result = "inactive"

[[record]]
compound = "CC=C(Cl)Cl"
readout_label = "outcome"
observed_result = "inactive"

[[record]]
compound = "OC(CCl)CCl"
readout_label = "outcome"
observed_result = "inactive"

[[record]]
compound = "C=CC(=O)OCCCCCCCC(C)C"
readout_label = "outcome"
observed_result = "inactive"

[[record]]
compound = "O=C1CCC(=O)O1"
readout_label = "outcome"
observed_result = "inactive"

[[record]]
compound = "CCCCCCCCC=O"
readout_label = "outcome"
observed_result = "inactive"

[[record]]
compound = "O=C(Nc1ccccc1)OCC(CN1CCCCC1)OC(=O)Nc1ccccc1 (stereo unspecified)"
readout_label = "outcome"
observed_result = "inactive"

[[record]]
compound = "Cc1cccc(S(=O)(=O)O)c1C"
readout_label = "outcome"
observed_result = "inactive"

[[record]]
compound = "CC1=CCC(O)(C(C)C)CC1 (stereo unspecified)"
readout_label = "outcome"
observed_result = "inactive"

[[record]]
compound = "Cc1c2ccccc2c(C)c2c1ccc1ccccc12"
readout_label = "outcome"
observed_result = "inactive"

[[record]]
compound = "COC(=O)OC"
readout_label = "outcome"
observed_result = "inactive"

[[record]]
compound = "Oc1ccc(C(c2ccc(O)cc2)C(Cl)(Cl)Cl)cc1"
readout_label = "outcome"
observed_result = "inactive"

[[record]]
compound = "O=C(O[C@@H]1Cc2c(O)cc(O)cc2O[C@@H]1c1cc(O)c(O)c(O)c1)c1cc(O)c(O)c(O)c1"
readout_label = "outcome"
observed_result = "inactive"

[[record]]
compound = "COc1ccccc1Oc1c(NS(=O)(=O)c2ccc(C(C)(C)C)cc2)nc(-c2ncccn2)nc1OCCO"
readout_label = "outcome"
observed_result = "inactive"

[[record]]
compound = "c1ccc2nccnc2c1"
readout_label = "outcome"
observed_result = "inactive"

[[record]]
compound = "C[C@H](CCC(=O)O)[C@H]1CC[C@H]2[C@@H]3[C@H](O)C[C@@H]4C[C@H](O)CC[C@]4(C)[C@H]3CC[C@]12C"
readout_label = "outcome"
observed_result = "inactive"

[[record]]
compound = "C[C@H]1C[C@H]2[C@@H]3CCC4=CC(=O)C=C[C@]4(C)[C@@]3(F)[C@@H](O)C[C@]2(C)[C@@]1(O)C(=O)COP(=O)(O)O"
readout_label = "outcome"
observed_result = "inactive"

[[record]]
compound = "CN1Cc2cc(C(=O)N3CCC(C4CCNCC4)CC3)ccc2NC(CC(=O)O)C1=O (stereo unspecified)"
readout_label = "outcome"
observed_result = "inactive"

[[record]]
compound = "CCCC(=O)Nc1ccc(O)c(C(C)=O)c1"
readout_label = "outcome"
observed_result = "inactive"

[[record]]
compound = "NC(=S)NC(N)=S"
readout_label = "outcome"
observed_result = "inactive"

[[record]]
compound = "O=C(O)c1ccc(Cl)cc1Cl"
readout_label = "outcome"
observed_result = "inactive"

[[record]]
compound = "O=C1CC(c2ccc(Cl)cc2)CC(=O)N1"
readout_label = "outcome"
observed_result = "inactive"

[[record]]
compound = "NC(CO)C(=O)NNCc1ccc(O)c(O)c1O (stereo unspecified)"
readout_label = "outcome"
observed_result = "inactive"

[[record]]
compound = "C=CCc1cc(OC)c(O)c(C(=O)NCCO)c1"
readout_label = "outcome"
observed_result = "inactive"

[[record]]
compound = "CCC(CO)(CO)CO"
readout_label = "outcome"
observed_result = "inactive"

[[record]]
compound = "Oc1cc(O)c(Cl)cc1Cl"
readout_label = "outcome"
observed_result = "inactive"

[[record]]
compound = "CCCCCCCCS(=O)(=O)Cl"
readout_label = "outcome"
observed_result = "inactive"

[[record]]
compound = "C[N+](C)(C)CC[N+]1(C)Cc2c(Cl)c(Cl)c(Cl)c(Cl)c2C1"
readout_label = "outcome"
observed_result = "inactive"

[[record]]
compound = "O=CCc1ccccc1"
readout_label = "outcome"
observed_result = "inactive"

[[record]]
compound = "C/C=C/C=C/CO"
readout_label = "outcome"
observed_result = "inactive"

[[record]]
compound = "CC(C)c1ccc2cc(C(C)C)ccc2c1"
readout_label = "outcome"
observed_result = "inactive"

[[record]]
compound = "C=C(C)c1cccc(C(=C)C)c1"
readout_label = "outcome"
observed_result = "inactive"

[[record]]
compound = "CCCCCCC(C)(C)S"
readout_label = "outcome"
observed_result = "inactive"

[[record]]
compound = "CC(C)CCCCCOC(=O)CS"
readout_label = "outcome"
observed_result = "inactive"

[[record]]
compound = "CN(C)C"
readout_label = "outcome"
observed_result = "inactive"

[[record]]
compound = "CCCCOCC(C)OCC(C)O (stereo unspecified)"
readout_label = "outcome"
observed_result = "inactive"

[[record]]
compound = "CC(Cl)COP(=O)(OCC(C)Cl)OCC(C)Cl (stereo unspecified)"
readout_label = "outcome"
observed_result = "inactive"

[[record]]
compound = "CC(=O)OC[C@H]1O[C@@](COC(C)=O)(O[C@H]2O[C@H](COC(C)=O)[C@@H](OC(C)=O)[C@H](OC(C)=O)[C@H]2OC(C)=O)[C@@H](OC(C)=O)[C@@H]1OC(C)=O"
readout_label = "outcome"
observed_result = "inactive"

[[record]]
compound = "Brc1cc(Br)cc(Br)c1"
readout_label = "outcome"
observed_result = "inactive"

[[record]]
compound = "CCc1ccc2c(c1)C(=O)c1ccccc1C2=O"
readout_label = "outcome"
observed_result = "inactive"

[[record]]
compound = "CN1CCN(CCCN2c3ccccc3Sc3ccc(Cl)cc32)CC1"
readout_label = "outcome"
observed_result = "inactive"

[[record]]
compound = "CCCO[Si](OCCC)(OCCC)OCCC"
readout_label = "outcome"
observed_result = "inactive"

[[record]]
compound = "CC(C)CCCCCOC(=O)CCCCC(=O)OCCCCCC(C)C"
readout_label = "outcome"
observed_result = "inactive"

[[record]]
compound = "Nc1cc([N+](=O)[O-])ccc1O"
readout_label = "outcome"
observed_result = "inactive"

[[record]]
compound = "CO/C=C(/C(=O)OC)c1ccccc1Oc1cc(Oc2ccccc2C#N)ncn1"
readout_label = "outcome"
observed_result = "inactive"

[[record]]
compound = "C[C@@H](N)C(=O)O"
readout_label = "outcome"
observed_result = "inactive"

[[record]]
compound = "CCCC(CCC)(C(=O)OCC)C(=O)OCC"
readout_label = "outcome"
observed_result = "inactive"

[[record]]
compound = "COC(=O)c1ccccc1O"
readout_label = "outcome"
observed_result = "inactive"

[[record]]
compound = "O=S(=O)(O)c1ccc(Cl)cc1"
readout_label = "outcome"
observed_result = "inactive"

[[record]]
compound = "CC(C)CCCCCCc1ccc(O)cc1"
readout_label = "outcome"
observed_result = "inactive"

[[record]]
compound = "CC(=O)[C@@]1(O)CC[C@H]2[C@@H]3C[C@H](C)C4=CC(=O)C=C[C@]4(C)[C@@]3(F)[C@@H](O)C[C@@]21C"
readout_label = "outcome"
observed_result = "inactive"

[[record]]
compound = "CC/C(C)=N/O"
readout_label = "outcome"
observed_result = "inactive"

[[record]]
compound = "CCCSSCCC"
readout_label = "outcome"
observed_result = "inactive"


---

assay: qHTS assay for small molecules that induce genotoxicity in human embryonic kidney cells expressing luciferase-tagged ATAD5 - cell viability (AID 651634); conditions: HEK293T ATAD5-luc cells viability, CellTiter-Fluor, 15.5 h; series mostly up to 83.3 µM; further: nearly all actives have a fitted effect of over 25% in size
Inconclusive results are not listed. Active and inactive are the calls of the source. Calls come from the whole dose curve.
Outcomes: active, inactive

[[record]]
compound = "CCC1(c2cnc[nH]2)Cc2ccccc2C1"
label_class = "inactive"

[[record]]
compound = "CN[C@@]1(c2ccccc2Cl)CCCCC1=O"
label_class = "inactive"

[[record]]
compound = "OC(c1ccccc1)(c1ccccc1)C1CN2CCC1CC2 (stereo unspecified)"
label_class = "inactive"

[[record]]
compound = "Clc1ccc(C(Cn2ccnc2)OCc2csc3c(Cl)cccc23)c(Cl)c1 (stereo unspecified)"
label_class = "inactive"

[[record]]
compound = "CCON=O"
label_class = "inactive"

[[record]]
compound = "CCC1(C)CC(=O)NC(=O)C1"
label_class = "inactive"

[[record]]
compound = "CN1CCCC(=C(c2cccs2)c2cccs2)C1"
label_class = "inactive"

[[record]]
compound = "C[C@]12CC[C@H](O)C[C@H]1CC[C@@H]1[C@@H]2CC[C@]2(C)[C@@H](c3ccc(=O)oc3)C[C@H]3O[C@]132"
label_class = "active"

[[record]]
compound = "C[C@]12CC[C@H](OS(=O)(=O)O)CC1=CC[C@@H]1[C@@H]2CC[C@]2(C)C(=O)CC[C@@H]12"
label_class = "inactive"

[[record]]
compound = "C1CN(P2(N3CC3)=NP(N3CC3)(N3CC3)=NP(N3CC3)(N3CC3)=N2)CCO1 (stereo unspecified)"
label_class = "inactive"

[[record]]
compound = "C[C@]12C[C@H]3S[C@H]3C[C@@H]1CC[C@@H]1[C@@H]2CC[C@]2(C)[C@@H](O)CC[C@@H]12"
label_class = "inactive"

[[record]]
compound = "CC(=O)OCC(=O)[C@H]1CC[C@H]2[C@@H]3CC[C@H]4C[C@H](O)CC[C@]4(C)[C@H]3C(=O)C[C@]12C"
label_class = "inactive"

[[record]]
compound = "CC(=O)[C@H]1CC[C@H]2[C@@H]3CC[C@@H]4C[C@H](O)CC[C@]4(C)[C@H]3CC[C@]12C"
label_class = "inactive"

[[record]]
compound = "Cc1ccccc1-n1c(C)nc2ccccc2c1=O"
label_class = "inactive"

[[record]]
compound = "S=C(S)N1CCNCC1"
label_class = "inactive"

[[record]]
compound = "c1ccc2c(c1)Sc1ccccc1N2C[C@@H]1CN2CCC1CC2"
label_class = "inactive"

[[record]]
compound = "CN[C@H]1C[C@@H](N)[C@H](O)[C@@H](O[C@@H]2O[C@H](CO)[C@H](O)[C@@H]3OC4(O[C@H]23)O[C@H](C(N)CO)[C@H](O)[C@H](O)[C@H]4O)[C@@H]1O (stereo partly specified)"
label_class = "inactive"

[[record]]
compound = "c1csc(C2(N3CCCCC3)CCCCC2)c1"
label_class = "inactive"

[[record]]
compound = "C[N+]1([O-])[C@@H]2CC[C@H]1CC(OC(=O)C(CO)c1ccccc1)C2 (stereo partly specified)"
label_class = "inactive"

[[record]]
compound = "COc1ccc(OC)c(C[C@H](C)N)c1"
label_class = "inactive"

[[record]]
compound = "CC(C)=CCN1CC[C@]2(C)c3cc(O)ccc3C[C@H]1[C@H]2C"
label_class = "inactive"

